conditions: in isopropanol, 308.15 K
experimental_readout: solubility (mole fraction)

Query :: Param item = O=[N+]([O-])c1ccc(Oc2ccc([N+](=O)[O-])cc2)cc1 ; retrieve measured solubility (mole fraction).
Result :: 0.000538

---

conditions: in anisole, 288.15 K
experimental_readout: solubility (mole fraction)
# answer = number (no unit)

Query :: Param item = O=[N+]([O-])c1ccc(Oc2ccc([N+](=O)[O-])cc2)cc1 ; retrieve measured solubility (mole fraction).
Result :: 0.0293

---

settings: in acetone, 293.15 K
experimental_readout: solubility (mole fraction)
# answer = number (no unit)

Query :: Param item = O=[N+]([O-])c1ccc(Oc2ccc([N+](=O)[O-])cc2)cc1 ; retrieve measured solubility (mole fraction).
Result :: 0.0197
